Test: qHTS Assay for Lipid Storage Modulators in Drosophila S3 Cells;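 on cell number change: cells counted by Cell Tracker Red CMTPX staining in the red channel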
Settings: BODIPY lipid droplet fluorescence, 18-24 h, cells fed with added oleic acid; measured here: cell count max response
Hit rate of the full screen: of about 320,000 compounds, about 2,100 (0.66%) were called active. Not shown: some 53% with an inconclusive outcome. The sample as a whole holds a higher share of actives than the screen did.
Would you kindly list cell number change for each of these molecules?
One number for each entry, in %.

Reference set (3 entries):
molecule: CCC(C)[C@H](NC(=O)NCc1ccc(Cl)cc1)C(=O)O (stereo partly specified)
number: 4.5
//
molecule: COc1ccc(-c2nc(=S)[nH][nH]2)cc1
number: -14.6
//
molecule: COc1ccc(/C=C2\SC(=S)N(N3CCOCC3)C2=O)c(OC)c1
number: 7.5

Parameter requested: cell number change. Apply to each item below.
1. COC(=O)[C@@H](NC(=O)NCc1ccccc1F)C(C)C
2. CCC(C)[C@H](NC(=O)NCc1cccc(OC)c1)C(=O)O (stereo partly specified)
3. COC(=O)[C@@H](NC(=O)NCc1cccc(OC)c1)C(C)C
4. CCC(C)[C@H](NC(=O)NCc1ccccc1Cl)C(=O)O (stereo partly specified)
5. Cc1ccc(C(=O)Nc2ccc(C(=O)N/N=C/c3cccnc3)cc2)cc1
6. Cc1cccc(NC(=S)NCC(c2cccnc2)N2CCOCC2)c1 (stereo unspecified)
7. Cc1cc2c(cc1S(=O)(=O)N(C)c1ccccc1)NC(=O)CO2

Reply |
-6.12
1.61
-13.3
-0.143
17.5
16.1
-11.6

Ask | Entry under review: `CC(C)Oc1ccc(S(=O)(=O)N2CCOCC2)cc1NC(=O)C1CCCCC1` . Reported cell number change?
Reply | 17

====

Assay: qHTS Assay for Lipid Storage Modulators in Drosophila S3 Cells
Conditions: BODIPY lipid droplet fluorescence, 18-24 h, cells fed with added oleic acid; series mostly up to 46.1 µM
Text: NIH Molecular Libraries Probe Production Centers Network [MLPCN] NIH Chemical Genomics Center [NCGC] […] Triacsin C (Sigma-Aldrich T-4540), an inhibitor of long-chain fatty acyl CoA synthetase that blocks synthesis of triglycerides, was used as a positive control for lipid under-storage. […] Fluorescence was detected by excitation of the fluorophores with a 488-nm laser on an Acumen Explorer (TTP Lab Tech). […] Cells were detected using channel 3 (575-640 nm) with 5-um width and 100-um depth filters. […]
Among all 320,000 compounds or so, about 2,100 (0.66%) were called active. Inconclusive results (about 53%) are left out. Calls come from the whole dose curve; as a rule, active = well fitted inhibition curve with a large enough effect in the signal ratio, with a control signal flat (not every such curve was filed as active); inconclusive = small, poorly fitted or top-dose-only effect, or effect the other way, or a change in a side signal; inactive = flat fitted curve, though single readings scatter; the % refers to the signal ratio. Many of the other results were omitted from the sample, so actives are more common in it than they were.
Log the outcome using a class from yes = active, no = inactive

Ask | Tell me the assay call for `CCOCCCNC(=O)CCC(=O)NNc1nc2ccccc2c2nc(-c3ccccc3)nn12` please.
Reply | no

Ask | And the next one, `CCOc1ccc(C(C)=O)cc1COc1ccc(-c2nnco2)cc1` ?
Reply | yes

Ask | Try `Cc1ccc(Nc2nc(-c3ccncc3)nc3ccccc23)cc1` next.
Reply | no

Ask | Please give the result for `Fc1ccc(COc2ccc(-c3nnco3)cc2)c(Cl)c1` too.
Reply | no

Ask | Note, next up: `COCCCNC(=O)CCC(=O)NNc1nc2ccccc2c2nc(-c3ccccc3)nn12`
Reply | no

Ask | Let us now turn to `Cc1ccc(CNC(=O)C2CCN(c3nnc(N4CCCC4=O)s3)CC2)cc1`
Reply | no

Ask | Proceed to CCN(CC)CCCNC(=O)C1CCCN(c2nnc(N3CCCC3=O)s2)C1 (stereo unspecified)
Reply | yes

Ask | Repeat for the following compound: CC1CC(C)CN(CCCNC(=O)C2CCCN(c3nnc(N4CCCC4=O)s3)C2)C1 (stereo unspecified)
Reply | no

Ask | Proceed to `Cc1ccc(C(=O)Nc2ccc(N3CCN(C)CC3)cc2)cc1C`
Reply | no

Ask | And for `CCOC(=O)c1nc2sc(C)c(C)c2c(=O)[nH]1` ?
Reply | no

Ask | Another compound to check: `O=Cc1cccn1-c1sc2c(c1C(=O)O)CCCC2`
Reply | no

====

Assay: qHTS Assay for Lipid Storage Modulators in Drosophila S3 Cells
Conditions: BODIPY lipid droplet fluorescence, 18-24 h, cells fed with added oleic acid; series mostly up to 46.1 µM
The whole screen tested about 320,000 compounds, of which about 2,100 (0.66%) were called active. Inconclusive results (about 53%) are left out. Calls follow the shape of the dose curve; as a rule, active = well fitted inhibition curve with a large enough effect in the signal ratio, with a control signal flat (not every such curve was filed as active); inconclusive = small, poorly fitted or top-dose-only effect, or effect the other way, or a change in a side signal; inactive = flat fitted curve, though single readings scatter; the % refers to the signal ratio. The entries come from a sample that favours actives as a whole.
Can you answer with just one of these options? Y for active, N for inactive

Worked examples, 3 compounds total:
compound: Cc1cc(C)nc(Sc2ccc([N+](=O)[O-])cc2[N+](=O)[O-])n1
cat: Y
--
compound: CCNC(=S)NS(=O)(=O)c1ccc(CC)cc1
cat: N
--
compound: Cc1cc(C)nc(SCc2ccc([N+](=O)[O-])cc2)n1
cat: N

Ask | In this assay, the call recorded for `O=C(Cc1ccccc1F)Nc1ccc(S(=O)(=O)Nc2ncccn2)cc1` was what?
Reply | Y

Ask | Would you kindly repeat that for `CCOC(=O)c1sc(NC(=O)c2ccccc2OCC)nc1C` ?
Reply | N

Ask | Further, for COc1ccc(OC)c(NC(=O)C2CCCCC2C(=O)O)c1 (stereo not drawn) ?
Reply | N

Ask | Now this one: `Cc1cc(C)c2[nH]c3nc(SCC(=O)O)nnc3c2c1`
Reply | N

Ask | Next record, please: O=C1c2ccccc2NC(c2cccc([N+](=O)[O-])c2)N1CCc1ccccc1 (stereo not drawn)
Reply | Y

Ask | Consider next the compound Cc1cc(C)nc(N2CCCC(C(=O)NC3CC3)C2)n1 (stereo not drawn) in the same way.
Reply | N

Ask | Cool, now `COc1ccc(N=C2S/C(=C\c3ccco3)C(=O)N2CC(C)C)cc1`
Reply | N

Ask | Subsequent entry: CC1CCCC(C)N1C(=O)Cn1cc(C#N)c2ccccc21 (stereo not drawn)
Reply | N

====

Assay: qHTS Assay for Lipid Storage Modulators in Drosophila S3 Cells
Details: BODIPY lipid droplet fluorescence, 18-24 h, cells fed with added oleic acid; series mostly up to 46.1 µM
Screen size: about 320,000 compounds; about 2,100 (0.66%) were called active. Inconclusive results (about 53%) are left out. The call rests on the fitted dose curve; in most records, active means well fitted inhibition curve with a large enough effect in the signal ratio, with a control signal flat (not every such curve was filed as active); inconclusive means small, poorly fitted or top-dose-only effect, or effect the other way, or a change in a side signal; inactive means flat fitted curve, though single readings scatter; the % refers to the signal ratio. Many of the other results were omitted from the sample, so actives are more common in it than they were.
Answer with one of the outcomes given here: active, inactive

Examples from the recorded data:
compound: CCOC(=O)C1CCN(CC(O)COCc2ccc(Cl)cc2)CC1 (stereo not drawn)
cat: active
//
compound: CCCOc1cccc(C(=O)N(Cc2ccco2)C2CCS(=O)(=O)C2)c1 (stereo not drawn)
cat: inactive
//
compound: COc1ccc(CNC(=O)CN2c3ccccc3S(=O)(=O)c3ccccc32)cc1
cat: inactive
//
compound: O=C(c1ccc(CS(=O)Cc2ccccc2Cl)o1)N1CCN(c2ccccn2)CC1 (stereo not drawn)
cat: inactive
//
compound: COc1ccccc1NS(=O)(=O)c1ccc2oc(SCc3ccc(F)cc3)nc2c1
cat: inactive

Ask | State the result this test recorded for COCC(C)NC(=O)COc1ccc(Cl)cc1Cl (stereo not drawn) .
Reply | inactive

Ask | Repeat for the following compound: COc1ccccc1NS(=O)(=O)c1ccc2oc(SC(C)C(=O)N3CCNC3=O)nc2c1 (stereo not drawn)
Reply | inactive

Ask | Then this compound: O=C(c1ccc(CS(=O)c2cccc(Cl)c2)o1)N1CCOCC1 (stereo not drawn)
Reply | inactive

Ask | Then this compound: `CN(C)S(=O)(=O)Nc1cc(F)cc(F)c1`
Reply | inactive

Ask | Same for `CN(C)S(=O)(=O)Nc1cc(Cl)cc(Cl)c1`
Reply | active

Ask | Let us now turn to `CS(=O)(=O)c1cccc(C(=O)NCc2ccccc2)c1`
Reply | inactive

Ask | And for `CCc1nnc(NC(=O)CSc2nc3ccccc3o2)s1` ?
Reply | inactive

====

Test: qHTS Assay for Lipid Storage Modulators in Drosophila S3 Cells
Conditions: BODIPY lipid droplet fluorescence, 18-24 h, cells fed with added oleic acid; series mostly up to 46.1 µM
Hit rate of the full screen: of about 320,000 compounds, about 2,100 (0.66%) were called active. About 53% were inconclusive and are not listed. The call rests on the fitted dose curve; in most records, active means well fitted inhibition curve with a large enough effect in the signal ratio, with a control signal flat (not every such curve was filed as active); inconclusive means small, poorly fitted or top-dose-only effect, or effect the other way, or a change in a side signal; inactive means flat fitted curve, though single readings scatter; the % refers to the signal ratio. The full list was thinned out, with actives kept by preference.
# valid calls are Yes (active), No (inactive); nothing else

As a guide, the following entries are already answered.
compound-smiles: CCOC1=C/C(=C/c2c(N)n3nc(CC(=O)N4CCCC4)sc3nc2=O)C=CC1=O
cat: No
--
compound-smiles: Cn1c(OCc2ccc3c(c2)OCO3)nc2c1c(=O)n(Cc1ccc(Cl)c(Cl)c1)c(=O)n2C
cat: No

Ask | What is the recorded call for this compound in the test? `O=C(NC1(N2CCOCC2)CC1)c1ccc(Cl)cc1`
Reply | No

Ask | Next compound: `CC(=O)Nc1cccc(NC(=O)c2cccc(OCc3ccccc3)c2)c1`
Reply | No

Ask | Another: `COC1=C/C(=C/c2c(N)n3nc(CC(=O)N4CCCCC4)sc3nc2=O)C=CC1=O`
Reply | Yes

Ask | Now consider `Oc1ccc[n+](CCCCC[n+]2cccc(O)c2)c1` .
Reply | No

Ask | Here is the next compound: `CCOC(=O)C1(CC2CC2)CCN(C(=O)c2ocnc2C)CC1`
Reply | No

Ask | Proceed to `CC(=O)Nc1cccc(NC(=O)c2ccccc2OCc2ccccc2)c1`
Reply | Yes

Ask | Likewise for `O=C(O)CCCCCCCCCC[n+]1ccccc1` ?
Reply | No

Ask | Also, `CC(=O)c1cccc(NC(=O)c2ccccc2OCc2ccc(F)cc2)c1` please.
Reply | No

Ask | Note, next up: `C(C#CCCCCCCCCC[n+]1ccccc1)#CCCCCCCCCC[n+]1ccccc1`
Reply | Yes
